assay: Half life in simulated intestinal fluid at 20 uM by LC-MS/MS analysis; format: ADME
measured endpoint: half-life at 20 µM

CC(=O)NCCCC[C@H](NC(=O)[C@](C)(CCCCNC(C)=O)NC(=O)[C@H](Cc1ccc2ccccc2c1)NC(=O)[C@H](Cc1ccc(OCCNC(C)=O)cc1)NC(=O)[C@@H]1CSCC[C@H](NC(C)=O)C(=O)N[C@@H](CCC(N)=O)C(=O)N[C@@H]([C@@H](C)O)C(=O)N[C@@H](Cc2c[nH]c3ccccc23)C(=O)N[C@@H](CCC(N)=O)C(=O)N1)C(=O)N[C@@H](CC(N)=O)C(=O)NCC(N)=O
3 to 6 h
CC(=O)NCCCC[C@H](NC(=O)C(C)(C)NC(=O)[C@H](Cc1ccc2ccccc2c1)NC(=O)[C@H](Cc1ccc(OCCNC(C)=O)cc1)NC(=O)[C@@H](NC(=O)[C@H](CCC(N)=O)NC(=O)[C@H](Cc1c[nH]c2ccccc12)NC(=O)[C@@H](NC(=O)[C@H](CCC(N)=O)NC(=O)[C@@H](NC(C)=O)C(C)(C)S)[C@@H](C)O)C(C)(C)S)C(=O)N[C@@H](CC(N)=O)C(=O)N[C@@H](CCC(N)=O)C(N)=O
> 6 h

# context switch: different compound, same half-life at 20 µM
Query: # lookup: half-life at 20 µM of `CC(=O)N[C@H](C(=O)N[C@@H](CCC(N)=O)C(=O)N[C@H](C(=O)N[C@@H](Cc1c[nH]c2ccccc12)C(=O)N[C@@H](CCC(N)=O)C(=O)N[C@H](C(=O)N[C@@H](Cc1ccc(OCCN)cc1)C(=O)N[C@@H](Cc1ccc2ccccc2c1)C(=O)N[C@@H](CCC(C)C)C(=O)N[C@@H](CCC(=O)O)C(=O)N[C@@H](CC(N)=O)C(=O)N[C@@H](C)C(N)=O)C(C)(C)S)[C@@H](C)O)C(C)(C)S`
Result: < 1 h
